So I've got a bunch of molecules here, and I need their EC50 values.
# assay target: F508delCFTR (Homo sapiens, UniProt P13569, DEL508-508)
# Construct: expressed in transfected cells; host or cells: CFBE41o- human lung-derived epithelial cells (CFBE4lo-F508delCFTR-HRP), doxycycline-inducible
# Sequence (P13569 with tags, fused parts or gaps DEL508-508): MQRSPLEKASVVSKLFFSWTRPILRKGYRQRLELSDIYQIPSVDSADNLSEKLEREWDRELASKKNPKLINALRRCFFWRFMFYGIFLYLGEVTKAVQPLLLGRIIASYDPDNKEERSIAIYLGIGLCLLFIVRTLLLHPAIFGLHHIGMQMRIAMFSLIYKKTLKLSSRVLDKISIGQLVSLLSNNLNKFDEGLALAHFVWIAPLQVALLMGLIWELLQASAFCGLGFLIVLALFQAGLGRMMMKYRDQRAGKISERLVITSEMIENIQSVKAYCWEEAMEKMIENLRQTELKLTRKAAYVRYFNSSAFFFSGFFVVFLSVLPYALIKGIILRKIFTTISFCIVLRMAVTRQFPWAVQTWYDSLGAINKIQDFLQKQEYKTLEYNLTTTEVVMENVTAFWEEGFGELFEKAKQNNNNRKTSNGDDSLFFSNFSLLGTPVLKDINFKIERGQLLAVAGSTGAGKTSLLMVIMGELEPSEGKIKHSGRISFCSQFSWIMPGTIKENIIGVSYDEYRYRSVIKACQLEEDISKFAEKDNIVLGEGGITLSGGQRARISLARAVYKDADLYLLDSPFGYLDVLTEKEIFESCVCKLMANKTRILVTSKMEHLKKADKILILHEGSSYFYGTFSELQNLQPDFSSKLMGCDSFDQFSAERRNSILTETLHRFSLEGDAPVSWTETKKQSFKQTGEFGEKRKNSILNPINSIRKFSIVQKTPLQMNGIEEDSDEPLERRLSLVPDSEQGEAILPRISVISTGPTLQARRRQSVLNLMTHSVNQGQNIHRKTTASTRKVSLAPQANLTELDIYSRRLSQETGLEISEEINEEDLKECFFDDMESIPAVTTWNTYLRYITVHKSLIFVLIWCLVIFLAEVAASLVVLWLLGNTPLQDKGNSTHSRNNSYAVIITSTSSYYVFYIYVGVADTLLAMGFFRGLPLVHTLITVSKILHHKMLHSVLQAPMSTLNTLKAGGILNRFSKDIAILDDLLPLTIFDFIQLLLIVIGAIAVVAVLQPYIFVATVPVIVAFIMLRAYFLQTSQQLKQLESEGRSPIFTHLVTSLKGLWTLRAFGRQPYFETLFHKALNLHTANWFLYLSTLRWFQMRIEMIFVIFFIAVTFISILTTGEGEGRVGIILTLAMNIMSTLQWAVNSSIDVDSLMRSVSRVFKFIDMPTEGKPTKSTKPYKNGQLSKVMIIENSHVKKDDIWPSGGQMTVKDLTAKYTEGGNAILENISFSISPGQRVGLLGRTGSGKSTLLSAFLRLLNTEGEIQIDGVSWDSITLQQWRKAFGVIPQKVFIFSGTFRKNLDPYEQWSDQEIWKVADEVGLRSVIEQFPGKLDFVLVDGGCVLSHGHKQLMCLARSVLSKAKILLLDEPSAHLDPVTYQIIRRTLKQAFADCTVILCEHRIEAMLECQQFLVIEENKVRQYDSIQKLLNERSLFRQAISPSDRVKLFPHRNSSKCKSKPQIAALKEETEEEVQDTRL
# method notes: Cell Surface Expression-Horse Radish Peroxidase (CSE-HRP) Assay
# Type: cell-based
# conditions used: test compound without co-corrector; read-out: EC50 (without co-corrector)

Retrieve EC50 measured for `COc1ccc(C(C)(C)C)cc1CN[C@H]1[C@H](C(C)(C)OC)[C@@H](C(=O)O)N(C(=O)C2CCCCC2)[C@H]1c1cccnc1OC` and print it.
1 to 10 µM

Retrieve EC50 measured for `COc1ncc(C(F)(F)F)cc1CN[C@H]1[C@H](C(C)(C)C)[C@@H](C(=O)O)N(C(=O)[C@@H]2CCCC(F)(F)C2)[C@H]1c1ccccc1` and print it.
1 to 10 µM

Retrieve EC50 measured for `COc1ccc(C(C)(C)C)cc1CN[C@H]1[C@H](C(C)(C)C)[C@@H](C(=O)O)N(C(=O)OC(C)C)[C@H]1c1cccc(Cl)c1` and print it.
1 to 10 µM

---

# assay target: F508delCFTR (Homo sapiens, UniProt P13569, DEL508-508)
# Construct: expressed in transfected cells; host or cells: CFBE41o- human lung-derived epithelial cells (CFBE4lo-F508delCFTR-HRP), doxycycline-inducible
# method notes: Cell Surface Expression-Horse Radish Peroxidase (CSE-HRP) Assay;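 on Maximum % activity (without co-corrector): percent of the 2 µM on-plate positive control corrector response above DMSO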
# Type: cell-based
# conditions used: without co-corrector; maximum at any tested concentration, normalized to on-plate positive control; read-out: Maximum % activity (without co-corrector)
So I've got a bunch of compounds here, and I need their Emax values.

Retrieve Emax measured for `COc1ccc(C(C)(C)C)cc1CN[C@H]1[C@H](C(C)(C)C)[C@@H](C(=O)O)N(C(=O)Cc2ccsc2)[C@H]1c1ccccc1` and print it.
> 200%

Retrieve Emax measured for `COc1ccc(C(C)(C)C)cc1CN[C@H]1[C@H](C(C)(C)C)[C@@H](C(=O)O)N(C(=O)C2CC(C)(C)OC(C)(C)C2)[C@H]1c1ccccc1` and print it.
> 200%

Retrieve Emax measured for `COc1ccc(C(C)(C)C)cc1CN[C@H]1[C@H](C(C)(C)C)[C@@H](C(=O)O)N(C(=O)[C@@H]2CCCCO2)[C@H]1c1ccccc1Br` and print it.
> 200%

Retrieve Emax measured for `COc1ncc(C2CCC2)cc1CN(C)[C@H]1[C@H](C(C)(C)C)[C@@H](C(=O)O)N(C(=O)[C@@H]2CCCCO2)[C@H]1c1ccccc1C(C)C` and print it.
> 200%

Retrieve Emax measured for COc1cc(C(F)(F)F)ccc1CN[C@@H]1[C@@H](C(C)(C)C)[C@H](C(=O)O)N(C(=O)C2CCCCO2)[C@@H]1c1ccccc1N(C)C (mixture of isomers) and print it.
> 200%

Retrieve Emax measured for `CC(C)(C)[C@H]1[C@H](NCc2ccc3c(c2)OCCO3)[C@H](c2ccccc2)N(C(=O)C2CCCCC2)[C@@H]1C(=O)O` and print it.
< 100%

---

# assay target: F508delCFTR (Homo sapiens, UniProt P13569, DEL508-508)
# Construct: expressed in transfected cells; host or cells: CFBE41o- human lung-derived epithelial cells (CFBE4lo-F508delCFTR-HRP), doxycycline-inducible
# method notes: Cell Surface Expression-Horse Radish Peroxidase (CSE-HRP) Assay;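 on Maximum % activity (with co-corrector): co-corrector and positive control are both the same reference corrector at 2 µM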
# Assay type: cell-based
# conditions used: with co-corrector (2 μM); maximum at any tested concentration, normalized to on-plate positive control
# Experimental: Cell Surface Expression-Horse Radish Peroxidase (CSE-HRP) Assay The development was achieved by expressing the F508delCFTR mutation along with a horseradish peroxidase (HRP) in the fourth exofacial loop, and then measuring the HRP activity using luminescence readout from these cells, CFBE4lo-F508delCFTR-HRP, that were incubated overnight with the test corrector compounds, either without or with the co-corrector. […] The raw counts from the experiment were analyzed using Accelrys® Assay Explorer v3.3. […]
measured endpoint: Maximum % activity (with co-corrector)

Some solved cases for reference:
compound: COc1ccc(C2(C)CCC2)cc1CN[C@H]1[C@H](C(C)(C)C)[C@@H](C(=O)O)N(C(=O)OC(C)C)[C@H]1c1cccnc1N(C)C
measured endpoint: Maximum % activity (with co-corrector)
reported value: +++ (≥350)

compound: COc1cc(C(F)(F)F)cc(N[C@@H]2[C@@H](C(C)(C)C)[C@H](C(=O)O)N(C(=O)OC(C)C)[C@@H]2c2ccccc2)n1 (racemic)
measured endpoint: Maximum % activity (with co-corrector)
reported value: +++ (≥350)

compound: COc1ccc(-c2cnn(C3CC3)c2)cc1CN[C@H]1[C@H](C(C)(C)C)[C@@H](C(=O)O)N(C(=O)C2CCCCC2)[C@H]1c1ccccc1
measured endpoint: Maximum % activity (with co-corrector)
reported value: ++ (≥150 and <350)

compound: COc1ccc(C(F)(F)F)cc1CN[C@H]1[C@H](C(C)(C)C)[C@@H](C(=O)O)N(C(=O)OC(C)C)[C@H]1c1cccnc1OC(C)C
measured endpoint: Maximum % activity (with co-corrector)
reported value: +++ (≥350)

compound: COc1ccc(C(C)(C)C)cc1CN[C@H]1[C@H](C(C)(C)C)[C@@H](C(=O)O)N(C(=O)C2CC(C)(C)OC(C)(C)C2)[C@H]1c1ccccc1
measured endpoint: Maximum % activity (with co-corrector)
reported value: +++ (≥350)

Retrieve Maximum % activity (with co-corrector) measured for `COc1ccc(C(C)(C)C)cc1CN[C@H]1[C@H](C23CC(C2)C3)[C@@H](C(=O)O)N(C(=O)C2CCCCC2)[C@H]1c1ccccc1` and print it.
+++ (≥350)

Retrieve Maximum % activity (with co-corrector) measured for COc1ccc(C(F)(F)F)cc1CN[C@H]1[C@H](C(C)(C)C)[C@@H](C(=O)O)N(C(=O)[C@@H]2OCC[C@@H]2C(C)C)[C@H]1c1ccccc1 (relative stereo) and print it.
+++ (≥350)

Retrieve Maximum % activity (with co-corrector) measured for `COc1ncc(C(C)(C)C)cc1CN[C@H]1[C@H](C(C)(C)C)[C@@H](C(=O)O)N(C(=O)[C@@H]2CCCCO2)[C@H]1c1cccnc1N(C)C` and print it.
+++ (≥350)

Retrieve Maximum % activity (with co-corrector) measured for COc1ccc(C(C)(C)C)cc1CN[C@H]1[C@H](C(C)(C)C)[C@@H](C(=O)O)N(C(=O)C2CCCC(C(F)(F)F)C2)[C@H]1c1cccnc1N(C)C (some centres unmarked) and print it.
+++ (≥350)

Retrieve Maximum % activity (with co-corrector) measured for `Cc1cc(C(F)(F)F)cc(N[C@H]2[C@H](C(C)(C)C)[C@@H](C(=O)O)N(C(=O)C3CCCCC3)[C@H]2c2ccccc2)n1` and print it.
+++ (≥350)

Hello, the source for this data is patent US20180099931A1, in case you need it.
